target desc: Metabotropic glutamate receptor 8 (Rattus norvegicus) (UniProt P70579)
Sequence (P70579 whole entry, looked up): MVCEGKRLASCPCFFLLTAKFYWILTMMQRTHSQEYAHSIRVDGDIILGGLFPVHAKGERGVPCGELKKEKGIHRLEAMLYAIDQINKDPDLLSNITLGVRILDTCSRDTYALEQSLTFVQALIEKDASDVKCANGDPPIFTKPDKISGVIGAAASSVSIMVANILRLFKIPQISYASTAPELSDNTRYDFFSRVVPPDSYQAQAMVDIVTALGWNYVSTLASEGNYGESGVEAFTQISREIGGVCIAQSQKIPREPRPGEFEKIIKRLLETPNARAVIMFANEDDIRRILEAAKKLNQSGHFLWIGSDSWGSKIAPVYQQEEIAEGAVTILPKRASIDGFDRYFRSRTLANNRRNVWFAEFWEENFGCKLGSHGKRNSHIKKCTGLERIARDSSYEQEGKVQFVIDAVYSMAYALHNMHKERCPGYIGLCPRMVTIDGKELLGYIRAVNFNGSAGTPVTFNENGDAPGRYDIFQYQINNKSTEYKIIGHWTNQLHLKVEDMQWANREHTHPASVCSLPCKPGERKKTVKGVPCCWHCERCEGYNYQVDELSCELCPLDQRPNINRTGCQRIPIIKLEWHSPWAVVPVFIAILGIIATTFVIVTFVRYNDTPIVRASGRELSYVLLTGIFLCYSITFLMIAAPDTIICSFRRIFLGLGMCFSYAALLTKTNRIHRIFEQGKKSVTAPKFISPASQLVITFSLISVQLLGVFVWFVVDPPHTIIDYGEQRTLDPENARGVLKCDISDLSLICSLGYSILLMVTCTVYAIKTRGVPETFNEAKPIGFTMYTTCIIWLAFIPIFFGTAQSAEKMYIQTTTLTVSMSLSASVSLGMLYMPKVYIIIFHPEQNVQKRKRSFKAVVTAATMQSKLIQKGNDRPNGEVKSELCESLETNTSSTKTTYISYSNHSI
assay remarks: mGluR8 Gi/Go-coupled signaling modulation – cell-based, rat, thallium flux, HTS, primary screen (AID 488969)
condition parameters: HEK293 rat mGluR8, GIRK (G protein-gated inwardly rectifying potassium channel) thallium flux, FluoZin2; at 10 µM; stronger effect = higher value; submaximal glutamate (EC20) added with thallium
In all, about 110,000 compounds were measured (“z-score”: median about -0.1, highest 2% from about 2 on). The entries come from a sample that favours the highest values as a whole.
Param threshold (0.03) applies to z-score; output 1 when value >= threshold, 0 when value < threshold.

Sample answers from the record:
| structure | assigned label |
| --- | --- |
| CCN1CCN(c2ncnc3c2cnn3-c2ccccc2)CC1 | 1 |
| Cc1ccc(C)c(NC(=S)NNC(=O)c2csc(C)c2C)c1 | 1 |
| Cc1cc(=O)oc2cc(OCC(=O)Nc3cccc(S(=O)(=O)N(C)C)c3)ccc12 | 0 |
| CN(C)S(=O)(=O)c1cccc(NC(=O)Cc2ccc(Cl)cc2)c1 | 1 |
| COC(=O)c1ccc2c(=O)n(CCO)c(=S)[nH]c2c1 | 0 |

Check the entry Cc1c(Cl)cccc1NC(=O)CNc1cccc(S(=O)(=O)N(C)C)c1 : does z-score equal or exceed 0.03? 0
